- Tested on: OVCAR-5
- procedure_details: NCI tumour cell line growth inhibition, 48 h
Calls of active or inactive are those of the source. No stated cut-off is given here; in the data, active = GI50 up to about 1.1 µM and inactive = higher.
value_type: GI50

Consider the compound CCOC(=O)Nc1nc2cc(Cn3cccc3)ccc2[nH]1 and give its measured GI50.
16 µM (inactive)

Consider the compound CC(C)(C)c1cc(CCC(=O)Nc2ccc(Cl)cc2)nc(NC#N)n1 and give its measured GI50.
> 100 µM (inactive)

Consider the compound CC(C)=C1CCC(CN2CCCC2)C1=O (configuration not stated) and give its measured GI50.
94.6 µM (inactive)

Consider the compound Oc1ccc(/C=C/c2ccc3cccc(O)c3n2)cc1O and give its measured GI50.
16.1 µM (inactive)

Consider the compound O=c1[nH]c(=O)n(COCCO)c2ccsc12 and give its measured GI50.
> 100 µM (inactive)

Consider the compound O=C(/C=C1\C[C@H]2C=Nc3ccccc3C(=O)N2C1)NCCCCNC(=O)/C=C1\C[C@H]2C=Nc3ccccc3C(=O)N2C1 and give its measured GI50.
19.2 µM (inactive)

Consider the compound C=C(CN(C)C)C(=O)c1ccc(Oc2ccccc2)cc1 and give its measured GI50.
7.4 µM (inactive)

Consider the compound COc1ccccc1C1(C)SCc2nc3ccccc3n21 (configuration not stated) and give its measured GI50.
> 10 µM (inactive)

Consider the compound Cc1cc(C)c(/N=N/c2c(O)c(S(=O)(=O)O)cc3cc(S(=O)(=O)O)ccc23)cc1C and give its measured GI50.
> 100 µM (inactive)

Consider the compound O=C(OCc1ccc([N+](=O)[O-])cc1)N1c2ccccc2[C@@]23O[C@]24CCC[C@H]3C#C/C=C\C#C[C@H]14 and give its measured GI50.
> 100 µM (inactive)

Consider the compound NS(=O)(=O)c1ccc(NCc2cnc3ccccc3n2)cc1 and give its measured GI50.
> 100 µM (inactive)

Consider the compound O=C(NC(=O)c1cn(CCN(CCO)C(=O)NCCCCCCNC(=O)N(CCO)CCn2cc(C(=O)NC(=O)OCc3ccccc3)c(=O)[nH]c2=O)c(=O)[nH]c1=O)OCc1ccccc1 and give its measured GI50.
> 100 µM (inactive)

---

- Tested on: NCI-H460
- procedure_details: NCI tumour cell line growth inhibition, 48 h
Activity calls are given as the source filed them. No stated cut-off is given here; in the data, active = GI50 up to about 1.1 µM and inactive = higher.
Hi there, use one of these labels in your reply, thanks! active, inactive

Test call, this compound: N#CC(C#N)C(c1ccccc1)c1ccccc1
inactive

Test call, this compound: O=Cc1ccc(Oc2c3ccccc3nc3ccccc23)cc1
inactive

Test call, this compound: CC1CC(c2cccc3c2OCO3)=Nc2ccccc2S1 (centres undefined)
inactive

Test call, this compound: O=C1OC(OCC#CCOC2OC(=O)C(Cl)=C2Cl)C(Cl)=C1Cl (centres undefined)
inactive

Test call, this compound: O=C(O)/C(=C/c1ccccc1[N+](=O)[O-])c1cccs1
inactive

Test call, this compound: COc1ccc(NC/C=C/C(=C/COC(C)=O)OC(C)=O)cc1
inactive

Test call, this compound: COc1cc(Nc2c(C#N)[n+]([O-])c3ccccc3[n+]2[O-])cc(OC)c1OC
inactive

Test call, this compound: O=C(C(=O)c1ccc(Cc2ccc(C(=O)C(=O)c3ccccc3)cc2)cc1)c1ccccc1
inactive

Test call, this compound: CCCCCCc1cc2cc(-c3cn4ccccc4n3)c(=O)oc2cc1O
inactive

Test call, this compound: O=C(Cc1ccccc1)NN1C(=O)C(Cl)C1c1ccccc1Cl (centres undefined)
inactive

Test call, this compound: OC1[C@@H]2[C@@H](O)CCCN2C[C@@H](O)[C@H]1O (some centres undefined)
inactive

Test call, this compound: COC(=O)c1ccc(CCC2=CC(=O)C(Br)=CC2=O)cc1
inactive

Test call, this compound: O=C1CCC(=O)c2sccc2N1
inactive

Test call, this compound: O=c1c(C(c2ccc(O)cc2)c2c(O)oc3ccccc3c2=O)c(O)oc2ccccc12
inactive

Test call, this compound: N=C1C(O)C2(I)c3ccccc3N3C(=N)C(O)C4c5ccccc5N1C4C32 (centres undefined)
inactive

Test call, this compound: CCN(CC)Cc1cc(Nc2c3ccccc3nc3c4ccccc4n(C)c23)cc(CN(CC)CC)c1O
inactive

Test call, this compound: CC(=O)OCC1OC(O[C@@H]2c3c(O)c4c(c(O)c3C3=C(NN(c5ccc([N+](=O)[O-])cc5[N+](=O)[O-])[Se]3=O)[C@@]2(C)O)C(=O)c2ccccc2C4=O)C(OC(C)=O)C(OC(C)=O)C1OC(C)=O (some centres undefined)
active

Test call, this compound: O=C(Nc1cccc2nsnc12)c1cc2c(cc1Cl)Sc1nccn1S2(=O)=O
inactive

Test call, this compound: O=C(OC1C(Oc2ccccc2COC(=O)C2(O)C=CCCC2=O)OC(CO)C(O)C1O)c1ccccc1 (centres undefined)
inactive

Test call, this compound: O=C(O)COc1ccc2c3c1C(=O)CCC3CO2 (centres undefined)
inactive

Test call, this compound: CN1C(=O)C2C(=O)N(Cc3ccccc3)CC(=O)N2c2cccnc21 (centres undefined)
inactive

Test call, this compound: CCOC1=NC(C(F)(F)F)(C(F)(F)F)N=C(N2CCCCC2)O1
inactive

Test call, this compound: Cn1c(=O)[nH]c2nncnc2c1=O
inactive

Test call, this compound: CN(Cc1ccccc1)Cn1ccnc1
inactive

Test call, this compound: CC(C)CC(NC(O)[BH2-][N+](C)(C)C)C(=O)NC(Cc1ccccc1)C(=O)N[C@H]1c2ccsc2/C(=N/O)[C@H]1O (some centres undefined)
inactive

Test call, this compound: N#CCc1ccc(/C(C#N)=C2/OC(=N)C(c3ccc(CC#N)cc3)C2=O)cc1 (centres undefined)
inactive

Test call, this compound: Cn1c2c(c3ccccc31)CCN(CCCCN1CCc3c(n(C)c4ccccc34)C1=O)C2
inactive

Test call, this compound: Cc1cc(NCCCCCCNc2cc(C)nc3ccc(Cl)cc23)c2cc(Cl)ccc2n1
inactive

Test call, this compound: COc1cc(/C=C2/Oc3c(OC)cccc3C2=O)ccc1O
inactive

Test call, this compound: CCCSC1=N/C(=C\c2ccco2)C(=O)N1
inactive

Test call, this compound: O=c1[c-](-c2ccccc2)[se]c(-c2ccccc2)[n+]1-c1ccccc1
inactive

Test call, this compound: COC(=O)[C@H](Cc1ccc(OC(C)(C)C)cc1)N[C@H](C)C(=O)N[C@@H](Cc1ccccc1)C(=O)OCc1ccccc1
inactive

Test call, this compound: CCCC(=O)OC1C(C(O)CO)OC2OC(C)(C)OC21 (centres undefined)
inactive

Test call, this compound: Oc1ccc(/C=C/c2ccc3cccc(O)c3n2)cc1O
inactive

Test call, this compound: COc1cc(Nc2nc3cc(C(F)(F)F)ccc3nc2C(=O)O)cc(OC)c1OC
inactive

Test call, this compound: COc1c(-c2nc3ccc(N4CCN(C)CC4)cc3[nH]2)cc(OC)c2[nH]c(CO)nc12
inactive

Test call, this compound: Nc1cccc2c1C1=NNC(=O)CC1C2 (centres undefined)
inactive

Test call, this compound: COc1c(C)c2c(c(C)c1Cl)Oc1c(C=O)c(O)c(Cl)c(C)c1C(=O)O2
inactive

Test call, this compound: COC(=O)/C(C)=N/N=C(\S)SC
inactive

---

Could you please report measured GI50 for the items listed next?
- Test system: BT-549
- procedure_details: NCI tumour cell line growth inhibition, 48 h
Activity calls are given as the source filed them. No stated cut-off is given here; in the data, active = GI50 up to about 1.1 µM and inactive = higher.

Consider the compound COc1ccc(C2=CC(C(C)=C(C(N)=O)C(N)=O)C=C(c3ccc(Br)cc3)C2)c(OC)c1 (stereo not drawn) and give its measured GI50.
> 100 µM (inactive)

Consider the compound C/C(=N\c1ccc(N(C)C)cc1)c1ccccc1 and give its measured GI50.
18.9 µM (inactive)

Consider the compound Nc1nc(SCC(=O)c2ccccc2)nc2nc3c(c(-c4ccccc4)c12)CCCC3 and give its measured GI50.
40.9 µM (inactive)

---

- System: NCI-H522
- procedure_details: NCI tumour cell line growth inhibition, 48 h
Calls of active or inactive are those of the source. No stated cut-off is given here; in the data, active = GI50 up to about 1.1 µM and inactive = higher.
value_type: GI50

Consider the compound CC1(C)OP(=O)(c2ccccc2)C=C1Sc1ccc([N+](=O)[O-])cc1[N+](=O)[O-] (configuration not stated) and give its measured GI50.
19 µM (inactive)

Consider the compound NC(=O)NN=C1Cc2ccccc2C1 and give its measured GI50.
> 100 µM (inactive)

Consider the compound C[C@@H]1C[C@H]2OC(=O)[C@@]3(C)CCC[C@@](C)([C@@H]23)[C@@]1(O)CCc1ccoc1 and give its measured GI50.
> 61.8 µM (inactive)

Consider the compound COc1cc(/C=C(\C#N)C(=O)c2ccccc2)ccc1OCc1ccccc1 and give its measured GI50.
> 100 µM (inactive)

Consider the compound N=C(N)SCc1cccc2c(=O)cc(-c3ccccc3)oc12 and give its measured GI50.
3.87 µM (inactive)

Consider the compound CN1C(=O)C2C(=O)N(Cc3ccccc3)CC(=O)N2c2cccnc21 (configuration not stated) and give its measured GI50.
> 100 µM (inactive)

Consider the compound COC(=O)c1c(C)cccc1C1CN=NC12Cc1cc(C)cc(C)c1C2=O (configuration not stated) and give its measured GI50.
9.46 µM (inactive)

Consider the compound CC1(C)CN=C(Nc2ccc(F)c(F)c2)S1 and give its measured GI50.
> 100 µM (inactive)

Consider the compound NS(=O)(=O)c1ccc(NCc2cnc3ccccc3n2)cc1 and give its measured GI50.
> 100 µM (inactive)

Consider the compound CN1CCN2c3ccccc3CC(C#N)(C#N)C2C1 (configuration not stated) and give its measured GI50.
> 100 µM (inactive)

Consider the compound CN1CCN(c2ccc3nc(C4=C(O)C(=O)c5c(nc(CO)n5C)C4=O)[nH]c3n2)CC1 and give its measured GI50.
> 100 µM (inactive)

Consider the compound COc1ccc(CC2c3cc(Oc4cc(CC5c6cc(OC)c(OC)cc6CCN5C)ccc4O)c(OC)cc3CCN2C)cc1 (configuration not stated) and give its measured GI50.
6.81 µM (inactive)

Consider the compound COc1cc(/C=C2/Oc3c(OC)cccc3C2=O)ccc1O and give its measured GI50.
24.7 µM (inactive)

Consider the compound COc1ccc(/C=C2\OC(=O)C(Cl)=C2c2ccc(OC)cc2)cc1 and give its measured GI50.
66.2 µM (inactive)

Consider the compound CC(=O)OCC1OC(n2cc(F)c(=O)[nH]c2=O)C(NC(=O)N(CCCl)N=O)C(OC(C)=O)C1OC(C)=O (configuration not stated) and give its measured GI50.
> 100 µM (inactive)

Consider the compound CCN(CC)CCC(=O)c1ccc(Cl)c(Cl)c1 and give its measured GI50.
17.3 µM (inactive)

Consider the compound COc1cc(S(=O)(=O)Nc2nc(-c3ccc(/N=C/c4cccs4)cc3)cs2)ccc1Cl and give its measured GI50.
28.4 µM (inactive)
